Entries and their Ki values follow.
Biological target: TcoAT1
Type: cell-based, Trypanosoma congolense
Details: 0.05 µM [3H]-adenosine, 10 s; IC50 converted to Ki; read-out: Ki on the transport of [3H]-adenosine
Method: The information for the T. congolense adenosine transporter (TcoAT1) and four putative T. vivax nucleoside transporters was obtained in the TritrypDB (tritrypdb.org/tritrypdb) genome database. […] Uptake assays using radiolabeled trypanocides and/or nucleosides were carried out as described previously. […] Scintillation was measured in a 300SL (Hidex) scintillation counter (Hidex). […]
The answer is to be given in µM; state only the numeric part.

Answered cases to consult:
Name the recorded Ki for Nc1ncnc2c1c(-c1ccccc1)cn2C1OC(CO)C(O)C1O (stereo not drawn) .
146

// next record Nc1ncnc2c1c(Br)cn2[C@@H]1O[C@H](CO)C[C@H]1O
259

// next record O=c1[nH]cnc2c1ncn2[C@@H]1O[C@H](CO)[C@@H](O)[C@H]1O
0.55

// next record Nc1ncnc2c1ncn2[C@H]1C[C@H](O)[C@@H](CO)O1
0.5

// next record O=c1[nH]cnc2nc[nH]c12
61.2

More entries:
Name the recorded Ki for Nc1nc2c(ncn2[C@@H]2O[C@H](CO)[C@@H](O)[C@H]2O)c(=O)[nH]1 .
0.8

// next record Nc1ncnc2c1c(I)cn2[C@@H]1O[C@H](CO)C[C@H]1O
135

----------
system: L. mexicana SUPKO; experiment: microbe, parasite or virus in culture; assay type: cell-based, Leishmania mexicana; details: Resistance Factor = EC50(SUPKO)/EC50(Cas9)
API: label(entry) gives Met if the entry's SUPKO RF (Cas9) is strictly smaller than 6; on equality or larger values it gives Not met.

Quick check: SUPKO RF (Cas9) of Nc1ncnc2c1c(I)cn2[C@@H]1O[C@H](CO)C[C@H]1O under 6?
Met

// next record Nc1ncnc2c1c(F)cn2[C@@H]1O[C@H](CO)[C@@H](O)[C@H]1O
Not met

// next record Nc1ncnc2c1ccn2C1OC(CO)CC1O (centres unmarked)
Not met

// next record N=C(N)c1ccc(OCCCCCOc2ccc(C(=N)N)cc2)cc1 [Pentamidine, reference compound]
Met

// next record Nc1ncnc2c1c(F)cn2[C@@H]1O[C@H](CO)C[C@H]1O
Met

From here, focus on the item given below.
Quick check: SUPKO RF (Cas9) of N=C(N)c1ccc(/N=N/Nc2ccc(C(=N)N)cc2)cc1 [Diminazene, reference compound] under 6?
Met

----------
test system: T. congolense 6C3; experiment: microbe, parasite or virus in culture; format: cell-based, Trypanosoma congolense; settings: diminazene resistant strain, resazurin; read-out: T. congolense 6C3 EC50
pEC50: −log10 of the molar value.
Kind request: treat 6 as inclusive, so pEC50 at 6 or higher is fulfilled, anything lower is not fulfilled.

Threshold query (pEC50 >= 6) on Nc1ncnc2c1ccn2[C@H]1C[C@H](O)[C@@H](CO)O1
not fulfilled

// next record C=Cc1cn([C@@H]2O[C@H](CO)C[C@H]2O)c2ncnc(N)c12
fulfilled

// next record Nc1ncnc2c1c(F)cn2[C@@H]1O[C@H](CO)C[C@H]1O
fulfilled

// next record Nc1ncnc2c1c(Br)cn2[C@@H]1O[C@H](CO)[C@@H](O)[C@H]1O
fulfilled

----------
test system: L. mexicana SUPKO+TvxNT3; assay: microbe, parasite or virus in culture; assay type: cell-based, Leishmania mexicana; settings: Leishmania mexicana, read-out: SUPKO+TvxNT3 EC50
Entries and their pEC50 values follow.
The scale used: pEC50 is minus the common logarithm of the concentration in molar units.

Answered cases to consult:
Name the recorded pEC50 for Nc1ncnc2c1c(Br)cn2[C@@H]1O[C@H](CO)C[C@H]1O .
4.37

// next record Nc1ncnc2c1c(F)cn2[C@@H]1O[C@H](CO)[C@@H](O)[C@H]1O
4.24

// next record N=C(N)c1ccc(OCCCCCOc2ccc(C(=N)N)cc2)cc1 [Pentamidine, reference compound]
5.64

More entries:
Name the recorded pEC50 for Nc1ncnc2c1c(C(F)(F)F)cn2[C@@H]1O[C@H](CO)[C@@H](O)[C@H]1O .
5.13

----------
tested on: T. congolense 6C3; experiment: microbe, parasite or virus in culture; type: cell-based, Trypanosoma congolense; conditions: resistance factor = EC50 (test strain)/EC50(control strain)
Entries and their T. congolense 6C3 RF values follow.
Form rule: numeric answer, no unit written next to it.

Answered cases to consult:
Name the recorded T. congolense 6C3 RF for Nc1ncnc2c1c(Br)cn2[C@@H]1O[C@H](CO)C[C@H]1O [FH7429_u, 7-bromo-7-deaza-3′-deoxyadenosine] .
0.71

// next record Nc1ncnc2c1ccn2C1OC(CO)CC1O (stereo not shown) [FH7429_d, 3′-deoxytubercidin]
0.91

// next record Nc1ncnc2c1c(F)cn2[C@@H]1O[C@H](CO)[C@@H](O)[C@H]1O [FH3167, 7-deaza-7-fluoroadenosine]
1.06

// next record C=Cc1cn([C@@H]2O[C@H](CO)C[C@H]2O)c2ncnc(N)c12 [FH10659]
0.70

// next record Nc1ncnc2c1c(Cl)cn2[C@@H]1O[C@H](CO)[C@@H](O)[C@H]1O [FH3169]
0.87

More entries:
Name the recorded T. congolense 6C3 RF for Nc1ncnc2c1c(Br)cn2[C@@H]1O[C@H](CO)[C@@H](O)[C@H]1O [TH1003] .
0.66

// next record Nc1ncnc2c1c(C(F)(F)F)cn2[C@@H]1O[C@H](CO)[C@@H](O)[C@H]1O [FH6367, 7-trifluoromethyl-7-deazaadenosine]
0.50

// next record Nc1ncnc2c1c(Br)cn2[C@H]1C[C@H](O)[C@@H](CO)O1 [FH10679]
0.60

// next record CC(C)Oc1ncnc2c1c(Cl)cn2[C@@H]1O[C@H](CO)[C@@H](O)[C@H]1O [FH9531]
0.80

----------
tested on: human embryonic kidney (HEK) cells; assay: Resazurin toxicity assay on human embryonic kidney cells; assay type: cell-based; details: selectivity index = EC50 (HEK cells)/EC50 (T. equiperdum)
API: label(entry) gives YES if the entry's SI T. equiperdum is strictly smaller than 40; on equality or larger values it gives NO.

Quick check: SI T. equiperdum of Nc1ncnc2c1c(-c1ccccn1)cn2[C@@H]1O[C@H](CO)[C@@H](O)[C@H]1O under 40?
NO

// next record Nc1ncnc2c1c(I)cn2[C@@H]1O[C@H](CO)C[C@H]1O
NO

// next record Nc1ncnc2c1c(F)cn2[C@@H]1O[C@H](CO)[C@@H](O)[C@H]1O
YES

// next record Nc1ncnc2c1c(C(F)(F)F)cn2[C@@H]1O[C@H](CO)[C@@H](O)[C@H]1O
YES

// next record Nc1ncnc2c1c(Cl)cn2[C@@H]1O[C@H](CO)[C@@H](O)[C@H]1O
YES

From here, focus on the item given below.
Quick check: SI T. equiperdum of Nc1ncnc2c1c(F)cn2[C@@H]1O[C@H](CO)C[C@H]1O under 40?
NO

----------
Entries and their EC50 values follow.
System: T. congolense 6C3
Assay: microbe, parasite or virus in culture
Format: cell-based, Trypanosoma congolense
Details: diminazene resistant strain, resazurin; read-out: T. congolense 6C3 EC50
Procedure: EC50 values were determined by plotting to an equation for a sigmoid curve with variable slope (GraphPad Prism 8). All values were the average of at least three independent determinations on different days.
The answer is to be given in nM; state only the numeric part.

Answered cases to consult:
Name the recorded EC50 for Nc1ncnc2c1c(Br)cn2[C@H]1C[C@H](O)[C@@H](CO)O1 .
310

// next record C#Cc1cn([C@@H]2O[C@H](CO)C[C@H]2O)c2ncnc(N)c12
8

More entries:
Name the recorded EC50 for Nc1ncnc2c1c(I)cn2[C@@H]1O[C@H](CO)C[C@H]1O .
3

----------
Entries and their EC50 values follow.
system: T. evansi; experiment: Alamar Blue (resazurin) assay, T. evansi; assay type: cell-based, Trypanosoma evansi; conditions: resazurin; read-out: T. evansi EC50

Answered cases to consult:
Name the recorded EC50 for Nc1ncnc2c1c(Cl)cn2[C@@H]1O[C@H](CO)[C@@H](O)[C@H]1O [FH3169] .
0.62 µM

// next record C#Cc1cn([C@@H]2O[C@H](CO)C[C@H]2O)c2ncnc(N)c12 [FH8505]
0.0078 µM

// next record Nc1ncnc2c1c(F)cn2[C@@H]1O[C@H](CO)C[C@H]1O [FH8517]
0.004 µM

// next record C=Cc1cn([C@@H]2O[C@H](CO)C[C@H]2O)c2ncnc(N)c12 [FH10659]
0.038 µM

// next record Nc1ncnc2c1c(Br)cn2[C@H]1C[C@H](O)[C@@H](CO)O1 [FH10679]
1.74 µM

More entries:
Name the recorded EC50 for Nc1ncnc2c1c(I)cn2[C@@H]1O[C@H](CO)C[C@H]1O [FH8496] .
0.0037 µM

// next record Nc1ncnc2c1ccn2[C@H]1C[C@H](O)[C@@H](CO)O1 [FH10677]
> 100 µM

// next record Nc1ncnc2c1c(Br)cn2[C@@H]1O[C@H](CO)[C@@H](O)[C@H]1O [TH1003]
0.48 µM

Origin of measurements: paper PMC9960827
